Reference source for all entries: the supplement of paper PMC6379048

- TGT: LSM8 (UniProt O95777)
- Sequence: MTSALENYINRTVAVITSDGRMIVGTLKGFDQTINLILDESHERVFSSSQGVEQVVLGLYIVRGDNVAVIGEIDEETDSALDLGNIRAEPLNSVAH
- MEASUREMENT PROTOCOL: Kd (EC50 corrected by depletion factor)
MEASUREMENT LABEL: pKd
Answers are plain numbers, as −log10 of the molar value.

Request: Output measured pKd for this item: `UAUUUAU`
Result: 5.65

----------
- TGT: U2AF1 (UniProt Q01081)
- Sequence: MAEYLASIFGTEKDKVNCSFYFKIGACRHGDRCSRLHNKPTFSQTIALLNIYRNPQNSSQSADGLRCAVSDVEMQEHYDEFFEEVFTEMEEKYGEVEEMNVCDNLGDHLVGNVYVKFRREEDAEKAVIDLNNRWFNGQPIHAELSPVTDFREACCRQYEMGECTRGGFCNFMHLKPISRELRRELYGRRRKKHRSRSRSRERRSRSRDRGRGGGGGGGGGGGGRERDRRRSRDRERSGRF
- MEASUREMENT PROTOCOL: Kd (EC50 corrected by depletion factor)
MEASUREMENT LABEL: Kd (nM)
Answers are plain numbers, in nM.

Request: Quick one: give measured Kd for `AAUAAA`
Result: 202

----------
- TGT: KHSRP (UniProt Q92945)
- Sequence: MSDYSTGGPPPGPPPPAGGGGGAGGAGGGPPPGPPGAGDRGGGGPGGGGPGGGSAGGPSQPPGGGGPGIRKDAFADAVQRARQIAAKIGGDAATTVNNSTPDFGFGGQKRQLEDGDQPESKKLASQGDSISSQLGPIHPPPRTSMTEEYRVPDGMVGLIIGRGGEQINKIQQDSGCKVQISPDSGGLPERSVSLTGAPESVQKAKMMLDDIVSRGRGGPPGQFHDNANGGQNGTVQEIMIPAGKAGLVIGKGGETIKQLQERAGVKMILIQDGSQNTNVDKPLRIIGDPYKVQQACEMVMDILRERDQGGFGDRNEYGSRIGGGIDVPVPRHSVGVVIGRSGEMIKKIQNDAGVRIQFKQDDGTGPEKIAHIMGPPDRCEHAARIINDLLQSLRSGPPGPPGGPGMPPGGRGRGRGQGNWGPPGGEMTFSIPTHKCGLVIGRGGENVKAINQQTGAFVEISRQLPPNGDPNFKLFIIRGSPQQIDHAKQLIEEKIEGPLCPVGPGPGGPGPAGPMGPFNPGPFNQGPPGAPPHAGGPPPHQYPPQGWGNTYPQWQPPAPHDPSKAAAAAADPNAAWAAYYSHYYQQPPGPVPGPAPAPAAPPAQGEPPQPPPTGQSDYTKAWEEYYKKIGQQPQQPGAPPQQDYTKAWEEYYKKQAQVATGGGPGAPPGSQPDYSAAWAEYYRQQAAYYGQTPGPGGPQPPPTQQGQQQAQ
- MEASUREMENT PROTOCOL: Kd (EC50 corrected by depletion factor)
MEASUREMENT LABEL: pKd
Answers are plain numbers, as −log10 of the molar value.

MONOMER SEQUENCE | MEASURED NUMBER
AAUAAA | 6.51

Now for the sequence whose pKd we want.
Request: Hello, please tell me recorded pKd for this one: `UAUUUAU`
Result: 6.03

----------
- TGT: TSNAX (UniProt Q99598)
- Sequence: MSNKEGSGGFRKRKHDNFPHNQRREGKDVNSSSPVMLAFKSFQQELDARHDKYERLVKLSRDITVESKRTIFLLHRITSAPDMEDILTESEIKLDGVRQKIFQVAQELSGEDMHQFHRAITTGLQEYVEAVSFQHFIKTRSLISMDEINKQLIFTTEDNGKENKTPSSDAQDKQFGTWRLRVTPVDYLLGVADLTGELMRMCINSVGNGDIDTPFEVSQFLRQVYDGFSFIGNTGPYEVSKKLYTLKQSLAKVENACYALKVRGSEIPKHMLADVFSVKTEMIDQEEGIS
- MEASUREMENT PROTOCOL: EC50 of free RNA motif oligo competing protein binding to immobilised probe
MEASUREMENT LABEL: EC50 (nM)
Answers are plain numbers, in nM.

Request: Name the recorded EC50 of the item `AAUAAA` in your answer.
Result: 30.5

----------
- TGT: IGF2BP3 (UniProt O00425)
- Sequence (O00425 whole entry): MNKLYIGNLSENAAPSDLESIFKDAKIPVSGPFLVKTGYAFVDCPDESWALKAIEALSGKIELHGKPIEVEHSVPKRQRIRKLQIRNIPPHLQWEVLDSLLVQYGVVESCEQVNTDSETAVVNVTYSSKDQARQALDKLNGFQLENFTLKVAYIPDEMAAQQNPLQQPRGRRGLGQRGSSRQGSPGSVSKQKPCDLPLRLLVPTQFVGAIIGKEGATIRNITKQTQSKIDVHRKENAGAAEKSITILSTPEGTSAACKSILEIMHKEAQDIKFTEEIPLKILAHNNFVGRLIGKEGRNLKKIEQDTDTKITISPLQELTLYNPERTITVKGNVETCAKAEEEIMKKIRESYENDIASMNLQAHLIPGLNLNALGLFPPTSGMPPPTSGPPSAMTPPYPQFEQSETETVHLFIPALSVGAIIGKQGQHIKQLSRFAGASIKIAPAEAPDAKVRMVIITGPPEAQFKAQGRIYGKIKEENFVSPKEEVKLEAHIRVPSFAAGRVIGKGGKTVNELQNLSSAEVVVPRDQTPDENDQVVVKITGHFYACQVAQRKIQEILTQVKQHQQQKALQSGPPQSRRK
- MEASUREMENT PROTOCOL: Kd (EC50 corrected by depletion factor)
MEASUREMENT LABEL: pKd
One number for each entry, as −log10 of the molar value.

Request: Answer with the recorded pKd of `CUGUCCU` only.
Result: 6.16

----------
- TGT: RPS25 (UniProt P62851)
- MEASUREMENT PROTOCOL: EC50 of free RNA motif oligo competing protein binding to immobilised probe
MEASUREMENT LABEL: EC50 (µM)
Numbers only, in µM.

Request: Find the measured EC50 of `CUGUCCU` and report it.
Result: 0.0725

----------
- TGT: MCM4 (UniProt P33991)
- Sequence: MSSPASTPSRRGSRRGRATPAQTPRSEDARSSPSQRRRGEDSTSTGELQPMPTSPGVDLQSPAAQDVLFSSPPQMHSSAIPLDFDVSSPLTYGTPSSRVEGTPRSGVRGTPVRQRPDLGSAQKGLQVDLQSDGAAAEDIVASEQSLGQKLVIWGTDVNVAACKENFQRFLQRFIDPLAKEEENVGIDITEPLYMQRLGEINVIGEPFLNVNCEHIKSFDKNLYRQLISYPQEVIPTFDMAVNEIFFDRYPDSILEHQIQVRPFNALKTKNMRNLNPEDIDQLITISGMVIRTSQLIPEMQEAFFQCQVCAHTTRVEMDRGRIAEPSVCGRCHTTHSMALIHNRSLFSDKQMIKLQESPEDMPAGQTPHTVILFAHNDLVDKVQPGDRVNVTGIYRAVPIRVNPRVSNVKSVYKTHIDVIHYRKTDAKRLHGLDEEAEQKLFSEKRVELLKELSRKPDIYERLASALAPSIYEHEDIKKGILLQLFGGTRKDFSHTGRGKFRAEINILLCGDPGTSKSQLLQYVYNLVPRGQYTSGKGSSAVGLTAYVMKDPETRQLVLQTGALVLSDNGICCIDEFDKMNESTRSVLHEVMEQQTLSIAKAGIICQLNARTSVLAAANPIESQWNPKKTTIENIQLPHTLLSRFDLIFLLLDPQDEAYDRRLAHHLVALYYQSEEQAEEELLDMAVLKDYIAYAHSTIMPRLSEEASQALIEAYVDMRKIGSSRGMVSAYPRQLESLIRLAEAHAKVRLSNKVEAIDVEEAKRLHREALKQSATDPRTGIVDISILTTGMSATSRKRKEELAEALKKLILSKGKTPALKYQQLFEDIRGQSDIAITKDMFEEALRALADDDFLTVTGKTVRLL
- MEASUREMENT PROTOCOL: EC50 of free RNA motif oligo competing protein binding to immobilised probe
MEASUREMENT LABEL: EC50 (nM)
Give bare numbers, in nM.

Request: Provide EC50 value for the following sequence: `AAUAAA`
Result: 50

----------
- TGT: CSTF3 (UniProt Q12996)
- Sequence: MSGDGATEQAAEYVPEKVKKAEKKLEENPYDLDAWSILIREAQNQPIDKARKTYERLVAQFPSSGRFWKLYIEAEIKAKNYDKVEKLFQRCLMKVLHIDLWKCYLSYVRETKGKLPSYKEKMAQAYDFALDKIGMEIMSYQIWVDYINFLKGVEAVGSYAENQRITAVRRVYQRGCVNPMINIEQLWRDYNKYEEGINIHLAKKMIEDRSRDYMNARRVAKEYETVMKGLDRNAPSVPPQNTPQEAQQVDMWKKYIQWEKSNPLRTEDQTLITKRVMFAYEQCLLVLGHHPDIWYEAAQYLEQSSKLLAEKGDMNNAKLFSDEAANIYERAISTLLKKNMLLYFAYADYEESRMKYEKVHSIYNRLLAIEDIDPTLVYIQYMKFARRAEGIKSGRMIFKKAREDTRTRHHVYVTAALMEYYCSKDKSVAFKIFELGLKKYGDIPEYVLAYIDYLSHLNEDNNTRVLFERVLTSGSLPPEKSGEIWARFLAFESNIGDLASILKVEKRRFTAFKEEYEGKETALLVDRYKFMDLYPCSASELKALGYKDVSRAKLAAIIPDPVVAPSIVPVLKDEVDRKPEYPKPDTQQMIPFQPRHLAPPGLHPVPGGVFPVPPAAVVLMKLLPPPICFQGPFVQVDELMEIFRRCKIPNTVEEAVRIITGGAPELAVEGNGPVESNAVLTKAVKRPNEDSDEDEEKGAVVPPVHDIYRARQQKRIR
- MEASUREMENT PROTOCOL: EC50 of free RNA motif oligo competing protein binding to immobilised probe
MEASUREMENT LABEL: EC50 (nM)
One number for each entry, in nM.

MONOMER SEQUENCE | MEASURED NUMBER
AAUAAA | 80.7

--- query ---
Request: Write down EC50 measured for item `UAUUUAU`
Result: 600
